// data source = PubChem BioAssay AID1963981

# Tested on: 354836-022-R-J1-PDC multicell spheroid viability
# testName: Anticancer human tumor 354836-022-R-J1-PDC patient-derived head and neck squamous cell carcinoma cell line growth inhibition [PI3K]
# appliedConditions: second compound 1 µM; first compound 0.0316 µM; hits give low values
Some compounds, each annotated with its measured viability, T/C.
Report as a plain number; the unit % is understood.

Use the examples below as a reference point.
1. CC1(C)CCC(CN2CCN(c3ccc(C(=O)NS(=O)(=O)c4ccc(NCC5CCOCC5)c([N+](=O)[O-])c4)c(Oc4cnc5[nH]ccc5c4)c3)CC2)=C(c2ccc(Cl)cc2)C1 + Cc1nc(NC(=O)N2CCCC2C(N)=O)sc1-c1ccnc(C(C)(C)C(F)(F)F)c1 | 83.7
2. CCN1CCN(Cc2ccc(Nc3ncc(F)c(-c4cc(F)c5nc(C)n(C(C)C)c5c4)n3)nc2)CC1 + Cc1nc(NC(=O)N2CCCC2C(N)=O)sc1-c1ccnc(C(C)(C)C(F)(F)F)c1 | 63.2
3. C[C@@H](NC(=O)c1ncnc(N)c1Cl)c1ncc(C(=O)Nc2cc(C(F)(F)F)c(Cl)cn2)s1 + Cc1nc(NC(=O)N2CCCC2C(N)=O)sc1-c1ccnc(C(C)(C)C(F)(F)F)c1 | 65.3
4. CC(C)NCC(C(=O)N1CCN(c2ncnc3c2C(C)CC3O)CC1)c1ccc(Cl)cc1 (stereo unspecified) + COc1c(OCCCN2CCOCC2)ccc2c3n(c(=NC(=O)c4cnc(N)nc4)nc12)CCN3 | 1.35

Exercise: For Cn1ncc(Cl)c1-c1cc(C(=O)NC(CN)Cc2cccc(F)c2)sc1Cl (stereo unspecified) + CC(Nc1ncnc2nc[nH]c12)c1cc2cccc(Cl)c2c(=O)n1-c1ccccc1 , what is its reported viability, T/C?
Key: 65.6

Exercise: Can you share its viability, T/C? I mean this compound: CC(C)NCC(C(=O)N1CCN(c2ncnc3c2C(C)CC3O)CC1)c1ccc(Cl)cc1 (stereo unspecified) + Cc1nc(NC(=O)N2CCCC2C(N)=O)sc1-c1ccnc(C(C)(C)C(F)(F)F)c1
Key: 59.7

Exercise: # get_value(readout='viability, T/C', item= CNC(=O)c1ccc(N2C(=S)N(c3ccc(C#N)c(C(F)(F)F)c3)C(=O)C2(C)C)cc1F + COc1c(OCCCN2CCOCC2)ccc2c3n(c(=NC(=O)c4cnc(N)nc4)nc12)CCN3 )
Key: 1.3

Exercise: Need viability, T/C, item CC1(C)CCC(CN2CCN(c3ccc(C(=O)NS(=O)(=O)c4ccc(NCC5CCOCC5)c([N+](=O)[O-])c4)c(Oc4cnc5[nH]ccc5c4)c3)CC2)=C(c2ccc(Cl)cc2)C1 + CC(Nc1ncnc2nc[nH]c12)c1cc2cccc(Cl)c2c(=O)n1-c1ccccc1
Key: 106

Exercise: If you can, please state the reported viability, T/C value of CC(Cn1ccc(-c2ccc(C#N)c(Cl)c2)n1)NC(=O)c1cc(C(C)O)[nH]n1 (stereo unspecified) + Cc1nc(NC(=O)N2CCCC2C(N)=O)sc1-c1ccnc(C(C)(C)C(F)(F)F)c1 .
Key: 74.2

---

# System: 354836-022-R-J1-PDC multicell spheroid viability
# testName: Anticancer human tumor 354836-022-R-J1-PDC cell line growth inhibition [PI3K];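 further: spheroids exposed to agents for seven days before the viability read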
# appliedConditions: second compound 0.01 µM; first compound 0.1 µM; hits give low values
viability, T/C by entry:
Entry rule: numbers only, all in %.

Previously resolved entries follow.
1. CCN1CCN(Cc2ccc(Nc3ncc(F)c(-c4cc(F)c5nc(C)n(C(C)C)c5c4)n3)nc2)CC1 + CC(Nc1ccc2c(c1)OCCn1cc(N3C(=O)OCC3C(F)F)nc1-2)C(N)=O | 85
2. C#Cc1c(F)ccc2cc(O)cc(-c3ncc4c(N5CC6CCC(C5)N6)nc(OCC56CCCN5CC(F)C6)nc4c3F)c12 (stereo not drawn) + COc1c(OCCCN2CCOCC2)ccc2c3n(c(=NC(=O)c4cnc(N)nc4)nc12)CCN3 | 99

Consider now this further compound.
Exercise: What measured viability, T/C is associated with Cn1ncnc1[C@H]1c2n[nH]c(=O)c3cc(F)cc(c23)N[C@@H]1c1ccc(F)cc1 + COc1c(OCCCN2CCOCC2)ccc2c3n(c(=NC(=O)c4cnc(N)nc4)nc12)CCN3 on 354836-022-R-J1-PDC multicell spheroid viability?
Key: 76.2
